- Tested on: luciferase gene expression in HEK 293 cells in response to Comp. 004
- procedure.text: Screen of riboswitch constructs with 12C6-1 variant aptamers (libraries N1-N5) against Comp. 004, luciferase in HEK 293 cells
- Assay type: cell-based, human
- experimental.parameters: library N1 (J2-4), HEK 293, 25 M [sic] Comp. 004
quantity.name: Fold (induction of luciferase gene expression) (fold)
Record the value in fold, omitting the unit from your answer.

Return the recorded Fold (induction of luciferase gene expression) value; entry: N1_2D10 (CTGGGGAGTCCTTCATGCGGGGC; chemistry not given here)
15.53

Return the recorded Fold (induction of luciferase gene expression) value; entry: N1_2D6 (CTGGGGAGTCCTTCATGCGGGGC; chemistry not given here)
13.57

Return the recorded Fold (induction of luciferase gene expression) value; entry: N1_2E9 (CTGGGGAGTCCTTCATGCGGGGC; chemistry not given here)
11.27

Return the recorded Fold (induction of luciferase gene expression) value; entry: N1_2E4 (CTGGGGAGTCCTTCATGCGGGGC; chemistry not given here)
10.44

Return the recorded Fold (induction of luciferase gene expression) value; entry: N1_2E7 (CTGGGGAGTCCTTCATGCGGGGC; chemistry not given here)
19.91

Return the recorded Fold (induction of luciferase gene expression) value; entry: N1_2E10 (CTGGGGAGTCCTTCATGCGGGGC; chemistry not given here)
2.86

Return the recorded Fold (induction of luciferase gene expression) value; entry: N1_2G3 (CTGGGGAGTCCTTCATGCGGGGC; chemistry not given here)
36.58

Return the recorded Fold (induction of luciferase gene expression) value; entry: N1_2D1 (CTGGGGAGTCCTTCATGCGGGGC; chemistry not given here)
4.38

Return the recorded Fold (induction of luciferase gene expression) value; entry: N1_2F10 (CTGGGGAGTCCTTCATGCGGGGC; chemistry not given here)
10.84

Return the recorded Fold (induction of luciferase gene expression) value; entry: N1_2H7 (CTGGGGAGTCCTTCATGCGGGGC; chemistry not given here)
1.16

Return the recorded Fold (induction of luciferase gene expression) value; entry: N1_2G10 (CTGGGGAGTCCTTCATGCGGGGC; chemistry not given here)
4.40

Return the recorded Fold (induction of luciferase gene expression) value; entry: N1_2G4 (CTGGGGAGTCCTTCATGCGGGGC; chemistry not given here)
9.06

Return the recorded Fold (induction of luciferase gene expression) value; entry: N1_2E3 (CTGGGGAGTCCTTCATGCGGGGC; chemistry not given here)
5.79

Return the recorded Fold (induction of luciferase gene expression) value; entry: N1_2D9 (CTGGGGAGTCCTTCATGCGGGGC; chemistry not given here)
9.74

Return the recorded Fold (induction of luciferase gene expression) value; entry: N1_2H2 (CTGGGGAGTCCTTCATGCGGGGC; chemistry not given here)
2.85

Return the recorded Fold (induction of luciferase gene expression) value; entry: N1_2F11 (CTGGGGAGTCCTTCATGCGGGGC; chemistry not given here)
150.18

Return the recorded Fold (induction of luciferase gene expression) value; entry: N1_2G7 (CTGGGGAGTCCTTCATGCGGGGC; chemistry not given here)
2.06

Return the recorded Fold (induction of luciferase gene expression) value; entry: N1_2E11 (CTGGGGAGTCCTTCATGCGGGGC; chemistry not given here)
15.45

Return the recorded Fold (induction of luciferase gene expression) value; entry: N1_2H8 (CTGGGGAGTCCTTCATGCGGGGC; chemistry not given here)
1.45

----------
So I've got a bunch of substances here, and I need their Fold (induction of luciferase gene expression) values.
- System: luciferase gene expression in HEK 293 cells in response to Comp. 004
- procedure.text: Screen of riboswitch constructs with 12C6-1 variant aptamers (libraries N1-N5) against Comp. 004, luciferase in HEK 293 cells
- Type: cell-based, human
- experimental.parameters: library N5 variant aptamers (L5, X16-X21 randomized) of 12C6-1 in riboswitch constructs; in response to Comp. 004 treatment; HEK 293 cells
Record the value in fold, omitting the unit from your answer.

Return the recorded Fold (induction of luciferase gene expression) value; entry: N5_1B11 (CTGGGGAGTCCT; chemistry not given here)
477.1

Return the recorded Fold (induction of luciferase gene expression) value; entry: N5_1D5 (CTGGGGAGTCCT; chemistry not given here)
841.7

Return the recorded Fold (induction of luciferase gene expression) value; entry: N5_7E7 (DNA CTGGGGAGTCCT; chemistry not given here)
870.2

Return the recorded Fold (induction of luciferase gene expression) value; entry: N5_7D4 (DNA CTGGGGAGTCCT; chemistry not given here)
1144.9

Return the recorded Fold (induction of luciferase gene expression) value; entry: N5_7D7 (DNA CTGGGGAGTCCT; chemistry not given here)
105.5

Return the recorded Fold (induction of luciferase gene expression) value; entry: N5_4D8 (CTGGGGAGTCCT; chemistry not given here)
565.6

Return the recorded Fold (induction of luciferase gene expression) value; entry: N5_7F8 (DNA CTGGGGAGTCCT; chemistry not given here)
1279.7

Return the recorded Fold (induction of luciferase gene expression) value; entry: N5_7H1 (DNA CTGGGGAGTCCT; chemistry not given here)
158.5

Return the recorded Fold (induction of luciferase gene expression) value; entry: N5_11F4 (CTGGGGAGTCCT; chemistry not given here)
1230.1

Return the recorded Fold (induction of luciferase gene expression) value; entry: N5_13G12 (CTGGGGAGTCCT; chemistry not given here)
1199.4

Return the recorded Fold (induction of luciferase gene expression) value; entry: N5_1H3 (CTGGGGAGTCCT; chemistry not given here)
764.7

Return the recorded Fold (induction of luciferase gene expression) value; entry: N5_6F5 (CTGGGGAGTCCT; chemistry not given here)
1665.4

Return the recorded Fold (induction of luciferase gene expression) value; entry: N5_12G6 (CTGGGGAGTCCT; chemistry not given here)
2750.8

Return the recorded Fold (induction of luciferase gene expression) value; entry: N5_1B5 (CTGGGGAGTCCT; chemistry not given here)
780.8

Return the recorded Fold (induction of luciferase gene expression) value; entry: N5_6E6 (CTGGGGAGTCCT; chemistry not given here)
1032.8

Return the recorded Fold (induction of luciferase gene expression) value; entry: N5_1E5 (CTGGGGAGTCCT; chemistry not given here)
681.3

Return the recorded Fold (induction of luciferase gene expression) value; entry: N5_1D6 (CTGGGGAGTCCT; chemistry not given here)
684.9

Return the recorded Fold (induction of luciferase gene expression) value; entry: N5_1E11 (CTGGGGAGTCCT; chemistry not given here)
1095.6

Return the recorded Fold (induction of luciferase gene expression) value; entry: N5_1H11 (CTGGGGAGTCCT; chemistry not given here)
413.6

Return the recorded Fold (induction of luciferase gene expression) value; entry: N5_1H10 (CTGGGGAGTCCT; chemistry not given here)
781.1

Return the recorded Fold (induction of luciferase gene expression) value; entry: N5_7F3 (DNA CTGGGGAGTCCT; chemistry not given here)
1139.0

----------
- Tested on: luciferase gene expression in HEK 293 cells in response to Comp. 004
- procedure.text: Screen of riboswitch constructs with 12C6-1 variant aptamers (libraries N1-N5) against Comp. 004, luciferase in HEK 293 cells
- Assay type: cell-based, human
- experimental.parameters: library N5 variant aptamers (L5, X16-X21 randomized) of 12C6-1 in riboswitch constructs; in response to Comp. 004 treatment; HEK 293 cells
quantity.name: Fold (induction of luciferase gene expression) (fold)
Record the value in fold, omitting the unit from your answer.

Return the recorded Fold (induction of luciferase gene expression) value; entry: N5_8H1 (DNA CTGGGGAGTCCT; chemistry not given here)
1191.9

Return the recorded Fold (induction of luciferase gene expression) value; entry: N5_1G5 (CTGGGGAGTCCT; chemistry not given here)
804.6

Return the recorded Fold (induction of luciferase gene expression) value; entry: N5_14H11 (CTGGGGAGTCCT; chemistry not given here)
918.4

Return the recorded Fold (induction of luciferase gene expression) value; entry: N5_9C12 (DNA CTGGGGAGTCCT; chemistry not given here)
1094.3

Return the recorded Fold (induction of luciferase gene expression) value; entry: N5_7F11 (DNA CTGGGGAGTCCT; chemistry not given here)
339.7

----------
So I've got a bunch of substances here, and I need their Fold (induction of luciferase gene expression) values.
- Test system: luciferase gene expression in HEK 293 cells in response to Comp. 004
- procedure.text: Screen of riboswitch constructs with 12C6-1 variant aptamers (libraries N1-N5) against Comp. 004, luciferase in HEK 293 cells
- Format: cell-based, human
- experimental.parameters: library N5 variant aptamers (L5, X16-X21 randomized) of 12C6-1 in riboswitch constructs; in response to Comp. 004 treatment; HEK 293 cells
Record the value in fold, omitting the unit from your answer.

Return the recorded Fold (induction of luciferase gene expression) value; entry: N5_8C7 (DNA CTGGGGAGTCCT; chemistry not given here)
817.6

Return the recorded Fold (induction of luciferase gene expression) value; entry: N5_2E11 (CTGGGGAGTCCT; chemistry not given here)
1038.1

Return the recorded Fold (induction of luciferase gene expression) value; entry: N5_7C8 (DNA CTGGGGAGTCCT; chemistry not given here)
1313.8

Return the recorded Fold (induction of luciferase gene expression) value; entry: N5_7G6 (DNA CTGGGGAGTCCT; chemistry not given here)
902.8

Return the recorded Fold (induction of luciferase gene expression) value; entry: N5_1D8 (CTGGGGAGTCCT; chemistry not given here)
383.5

Return the recorded Fold (induction of luciferase gene expression) value; entry: N5_13G5 (CTGGGGAGTCCT; chemistry not given here)
1198.5

Return the recorded Fold (induction of luciferase gene expression) value; entry: N5_7D3 (DNA CTGGGGAGTCCT; chemistry not given here)
1075.7

Return the recorded Fold (induction of luciferase gene expression) value; entry: N5_1E9 (CTGGGGAGTCCT; chemistry not given here)
699.7

Return the recorded Fold (induction of luciferase gene expression) value; entry: N5_1B7 (CTGGGGAGTCCT; chemistry not given here)
662.1

Return the recorded Fold (induction of luciferase gene expression) value; entry: N5_2F12 (CTGGGGAGTCCT; chemistry not given here)
1100.0
